# System: Enterococcus faecalis ATCC 51299 (vanA-positive; vancomycin-resistant)
# measurement.description: In vitro antibacterial activity, MIC (UCL), VRE
# Assay type: cell-based
reported.metric: VRE MIC

Below, each entry is followed by its recorded VRE MIC result.
> print(dat)
                                  structure                              assay.target  observed.result
1  COCc1ccc2nc(-c3ccccn3)c(Nc3cccc(F)c3)n2c1  Enterococcus faecalis ATCC 51299 (vanA-positive; vancomycin-resistant)       > 32 µg/mL
2  c1ccc(-c2nc3ccccc3n2-c2ccc(N3CCOCC3)cc2)nc1  Enterococcus faecalis ATCC 51299 (vanA-positive; vancomycin-resistant)       > 32 µg/mL
3   N#CCc1ccc(-n2c(-c3ccccn3)nc3ccccc32)cc1  Enterococcus faecalis ATCC 51299 (vanA-positive; vancomycin-resistant)       > 32 µg/mL
4  COc1ccnc(-c2nc3cc(OC)ccn3c2N(C)c2ccc(F)cc2)c1  Enterococcus faecalis ATCC 51299 (vanA-positive; vancomycin-resistant)          8 µg/mL
5          c1ccc(-c2nc3ccccn3c2N2CCOCC2)nc1  Enterococcus faecalis ATCC 51299 (vanA-positive; vancomycin-resistant)       > 32 µg/mL
6  Cc1ccn2c(NC3CCCC3)c(-c3ccc(N(C)C)cc3)nc2c1  Enterococcus faecalis ATCC 51299 (vanA-positive; vancomycin-resistant)       > 32 µg/mL
7  COc1ccc2nc(-c3c[nH]cn3)c(Nc3ccc4c(c3)OCCO4)n2c1  Enterococcus faecalis ATCC 51299 (vanA-positive; vancomycin-resistant)       > 32 µg/mL
8       c1ccc(-n2c(-c3ccccn3)nc3ccccc32)cc1  Enterococcus faecalis ATCC 51299 (vanA-positive; vancomycin-resistant)       > 32 µg/mL

Continue with the next compound.
IN: // VRE MIC lookup, key: COc1ccn2c(Nc3ccc(F)cn3)c(-c3ccccn3)nc2c1.O=CO
OUT: > 32 µg/mL
